assay: qHTS assay for small molecules that induce genotoxicity in human embryonic kidney cells expressing luciferase-tagged ATAD5 - cell viability (AID 651634); settings: HEK293T ATAD5-luc cells viability, CellTiter-Fluor, 15.5 h; series mostly up to 83.3 µM; note: nearly all actives have a fitted effect of over 25% in size
Records with an inconclusive call do not appear. Active and inactive are the calls of the source. Calls come from the whole dose curve.
Valid outcomes are listed here; reply with one: true = active, false = inactive

What was the test verdict on `C[C@@H](N)C(=O)c1ccccc1` ?
false

What was the test verdict on `CN[C@@H]1C[C@@H](c2ccc(Cl)c(Cl)c2)c2ccccc21` ?
false

What was the test verdict on `C[C@@H](Cc1ccccc1)NCCC(c1ccccc1)c1ccccc1` ?
false

What was the test verdict on `O=C(NC(=O)c1c(F)cccc1F)Nc1ccc(Cl)c(Oc2ncc(C(F)(F)F)cc2Cl)c1` ?
false

What was the test verdict on CC(=O)OC1CN2CCC1CC2 (stereo not given) ?
false

What was the test verdict on `O=C(O)/C=C/C(=O)O` ?
false

What was the test verdict on `CC1(C)[C@H](C=C(Cl)Cl)[C@H]1C(=O)OCc1c(F)c(F)cc(F)c1F` ?
false

What was the test verdict on NC(=O)CN1CC(O)CC1=O (stereo not given) ?
false

What was the test verdict on `CN[C@@H](C)Cc1ccccc1` ?
false

What was the test verdict on COC(COC(N)=O)C1=C(N2CC2)C(=O)C(C)=C(N2CC2)C1=O (stereo not given) ?
false

What was the test verdict on `Clc1ccccc1-c1ccccc1Cl` ?
false

What was the test verdict on CN1c2ccccc2C(NCCCCCCC(=O)O)c2ccc(Cl)cc2S1(=O)=O (stereo not given) ?
false

What was the test verdict on `C[C@@H]1[C@@H]2Cc3ccc(O)cc3[C@@]1(C)CCN2CCc1ccccc1` ?
false

What was the test verdict on NCC(O)c1cccc(O)c1 (stereo not given) ?
false

What was the test verdict on CCC1(c2ccccc2)C(=O)NC(=O)N(C)C1=O (stereo not given) ?
false

What was the test verdict on `CCC(=O)O[C@@](Cc1ccccc1)(c1ccccc1)[C@@H](C)CN(C)C` ?
false

What was the test verdict on `[S]=[Sb](=[S])[S][Sb](=[S])=[S]` ?
false

What was the test verdict on CCNC1(c2cccs2)CCCCC1=O (stereo not given) ?
false

What was the test verdict on CC(N)Cc1ccc(O)cc1 (stereo not given) ?
false

What was the test verdict on `COc1cc(OC)c(OC)cc1C=O` ?
false

What was the test verdict on `CCCCCCCCCC(=O)O[C@H]1CC[C@H]2[C@@H]3CCC4=CC(=O)CC[C@]4(C)[C@H]3CC[C@]12C` ?
false

What was the test verdict on CCC1C(C)=NN=C(c2ccc(OC)c(OC)c2)c2cc(OC)c(OC)cc21 (stereo not given) ?
false

What was the test verdict on `CO/C=C(/C(=O)OC)c1ccccc1Oc1cc(Oc2ccccc2C#N)ncn1` ?
true

What was the test verdict on `CC1(C)S[C@@H]2[C@H](N)C(=O)N2[C@H]1C(=O)O` ?
false

What was the test verdict on `N#CC(C#N)=Cc1cc(O)c(O)c(O)c1` ?
true
